Data provenance: paper PMC6273687

- Test system: HeLa cervical carcinoma cell line
- method notes: Growth inhibition of tumor cell lines in vitro (MTT / cell counting)
- Format: cell-based
- conditions used: Homo sapiens
pIC50: −log10 of the molar value.
measured endpoint: pIC50

• COc1cc(NC(C)CCCNC(=O)NNC(=O)/C=C/c2cccc(C(F)(F)F)c2)c2ncccc2c1 (stereo not shown) [7i] = 5.00

[A] O=c1[nH]cc(F)c(=O)[nH]1 [5-FU, 5-fluorouracil, reference compound]
[B] COc1cc(NC(C)CCCNC(=O)/C=C/c2cc(C(F)(F)F)cc(C(F)(F)F)c2)c2ncccc2c1 (stereo not shown) [3k]
[C] COc1cc(NC(C)CCCNC(=O)/C=C/c2cccc(C(F)(F)F)c2)c2ncccc2c1 (stereo not shown) [3i]
## Input Hey, quick one: sort these by pIC50, low to high? Labels, requested order.
## Output C, B, A

----------
- Test system: HeLa cervical carcinoma cell line
- method notes: Growth inhibition of tumor cell lines in vitro (MTT / cell counting)
- Type: cell-based
- conditions used: Homo sapiens
pIC50: −log10 of the molar value.
measured endpoint: pIC50

* COc1cc(NC(C)CCCNC(=O)NNC(=O)/C=C/c2ccccc2)c2ncccc2c1 (stereo not drawn) [7a] | 4.92
* COc1cc(NC(C)CCCNC(=O)NNC(=O)/C=C/c2ccc(C(F)(F)F)cc2)c2ncccc2c1 (stereo not drawn) [7j] | 4.55
* COc1cc(NC(C)CCCNC(=O)NNC(=O)/C=C/c2ccc3c(c2)OCO3)c2ncccc2c1 (stereo not drawn) [7f] | 4.51
* COc1cc(NC(C)CCCNC(=O)/C=C/c2ccc(Cl)cc2)c2ncccc2c1 (stereo not drawn) [3g] | 4.44

[I] COc1cc(NC(C)CCCNC(=O)/C=C/c2ccc(C(F)(F)F)cc2)c2ncccc2c1 (stereo not drawn) [3j]
[II] COc1ccc(/C=C/C(=O)NNC(=O)NCCCC(C)Nc2cc(OC)cc3cccnc23)cc1 (stereo not drawn) [7c]
[III] COc1cc(NC(C)CCCNC(=O)/C=C/c2ccccc2)c2ncccc2c1 (stereo not drawn) [3a]
## Input Please give the order of these compounds when sorted by pIC50, largest value leading. # list labels per requested ordering
## Output II, III, I

----------
- System: HeLa cervical carcinoma cell line
- method notes: Growth inhibition of tumor cell lines in vitro (MTT / cell counting)
- Format: cell-based
- conditions used: Homo sapiens
pIC50: −log10 of the molar value.
measured endpoint: pIC50

[1] COc1cc(NC(C)CCCNC(=O)/C=C/c2ccccc2F)c2ncccc2c1 (centres unmarked) [3h]
[2] CNC(=O)c1cc(Oc2ccc(NC(=O)Nc3ccc(Cl)c(C(F)(F)F)c3)cc2)ccn1 [SOR, sorafenib, reference compound]
## Input Returns: the label, 1 or 2 , whose recorded pIC50 is the lower number. Record your answer as the label of the chosen record.
## Output 2

[A] COc1cc(NC(C)CCCNC(=O)NNC(=O)/C=C/c2cc(OC)c(OC)c(OC)c2)c2ncccc2c1 (centres unmarked) [7e]
[B] COc1cc(NC(C)CCCNC(=O)NNC(=O)/C=C/c2ccc(Cl)cc2)c2ncccc2c1 (centres unmarked) [7g]
## Input Larger number for pIC50: A , or B ? Identify your selection by its label.
## Output B
(B: 5.57, A: 4.15)

[P] COc1cc(NC(C)CCCNC(=O)NNC(=O)/C=C/c2ccccc2F)c2ncccc2c1 (centres unmarked) [7h]
[Q] COc1cc(NC(C)CCCNC(=O)/C(C)=C/c2ccccc2)c2ncccc2c1 (centres unmarked) [3b]
## Input API: POST /compare with P and Q ; response names the item with higher pIC50. // caller expects the label of the chosen entry
## Output P
(P: 4.34, Q: 3.97)
